System: Wild-type Mycobacterium tuberculosis biofilm
Test: Inhibition of mycobacterial biofilm formation (crystal violet)
Conditions: Conc. 15.0 (unit not given)

| compound | OD (biofilm formation) |
| --- | --- |
| OB1OCc2cc(F)ccc21 | 0.2452 |
| NCC[C@H](O)C(=O)N[C@@H]1C[C@H](N)[C@@H](O[C@H]2O[C@H](CN)[C@@H](O)[C@H](O)[C@H]2O)[C@H](O)[C@H]1O[C@H]1O[C@H](CO)[C@@H](O)[C@H](N)[C@H]1O | 0.3585 |
| CC(C)(N)C(=O)N[C@H](Cc1c[nH]c2ccccc12)C(=O)N[C@H](Cc1c[nH]c2ccccc12)NC=O | 0.3425 |
| CC(C)C(N)C(=O)OCC(CO)OCn1cnc2c(=O)[nH]c(N)nc21 (stereo not shown) | 0.5454 |

Hey, just so you know, these numbers are from paper PMC11201714.
